All figures here come from ChEMBL document CHEMBL3232938.

# MIC values compiled below
# System: Mycobacterium tuberculosis
# Measurement Protocol: Antibacterial activity against multidrug-resistant 1 ug/ml Mycobacterium tuberculosis clinical isolate 1259 assessed as growth inhibition after 7 days by microtiter plate assay
# Format: functional
# Recorded Conditions: isolate 1259, 168 h

Some solved entries appear below for comparison.
Any idea what its MIC is? The molecule is "O=C(O)c1cn(-c2ccc(F)cc2)c2cc(N3CCNCC3)c(F)cc2c1=O"
4 µg/mL

Any idea what its MIC is? The molecule is C[C@H]1[C@@H](OCCCNC2CCN(c3c(F)cc4c(=O)c(C(=O)O)cn(C5CC5)c4c3Cl)C2)O[C@@H]2O[C@@]3(C)CC[C@H]4[C@H](C)CC[C@@H]1[C@@]24OO3 (stereo partly specified)
2 µg/mL

Any idea what its MIC is? The molecule is "C[C@H]1[C@@H](O)O[C@@H]2O[C@@]3(C)CC[C@H]4[C@H](C)CC[C@@H]1[C@@]24OO3"
> 16 µg/mL

Any idea what its MIC is? The molecule is "CCn1cc(C(=O)O)c(=O)c2cc(F)c(N3CCNCC3)cc21"
2 µg/mL

Any idea what its MIC is? The molecule is NC1CCN(c2c(F)cc3c(=O)c(C(=O)O)cn(C4CC4)c3c2Cl)C1 (stereo unspecified)
0.125 µg/mL

Please turn your attention to the following entry.
Any idea what its MIC is? The molecule is C[C@H]1[C@@H](OCCNC2CCN(c3c(F)cc4c(=O)c(C(=O)O)cn(C5CC5)c4c3Cl)C2)O[C@@H]2O[C@@]3(C)CC[C@H]4[C@H](C)CC[C@@H]1[C@@]24OO3 (stereo partly specified)
2 µg/mL

###

# System: Mycobacterium tuberculosis
# Measurement Protocol: Antibacterial activity against multidrug-resistant 1 ug/ml Mycobacterium tuberculosis clinical isolate 1256 assessed as growth inhibition after 7 days by microtiter plate assay
# Type: functional
# Recorded Conditions: isolate 1256, 168 h
Result Type: MIC (µg/mL)
I only need the number, in µg/mL, no unit after it.

Some solved entries appear below for comparison.
Any idea what its MIC is? The molecule is C[C@H]1[C@@H](OCCNC2CCN(c3c(F)cc4c(=O)c(C(=O)O)cn(C5CC5)c4c3Cl)C2)O[C@@H]2O[C@@]3(C)CC[C@H]4[C@H](C)CC[C@@H]1[C@@]24OO3 (stereo partly specified)
16

Any idea what its MIC is? The molecule is NC1CCN(c2c(F)cc3c(=O)c(C(=O)O)cn(C4CC4)c3c2Cl)C1 (stereo unspecified)
0.5

Any idea what its MIC is? The molecule is C[C@H]1[C@@H](OCCCNC2CCN(c3c(F)cc4c(=O)c(C(=O)O)cn(C5CC5)c4c3Cl)C2)O[C@@H]2O[C@@]3(C)CC[C@H]4[C@H](C)CC[C@@H]1[C@@]24OO3 (stereo partly specified)
16

Any idea what its MIC is? The molecule is "CCn1cc(C(=O)O)c(=O)c2cc(F)c(N3CCNCC3)cc21"
16

Please turn your attention to the following entry.
Any idea what its MIC is? The molecule is "O=C(O)c1cn(-c2ccc(F)cc2)c2cc(N3CCNCC3)c(F)cc2c1=O"
16
